// data source = PubChem BioAssay AID1159580

# method-description: chemical genetic growth profiling, strain panel (AID 1159580);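 also: tested at 20 µM; growth read once vehicle control cultures reached saturation at 30 °C; 1 = growth at the plate median or of vehicle wells; lower values mean less growth of the strain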
# measurement-parameters: S. cerevisiae deletion strains, growth OD, locus YJR066W, strain TOR1, hits give low values
The campaign covered roughly 5,500 compounds. About 2,000 (36%) were called active. Roughly 18% stayed inconclusive and do not appear here. The list shows a part of the results.
measurement-type: normalized growth
Please reply with the number alone, leaving off any unit.

CC1(C)O[C@@H]2CC3C4C[C@H](F)C5=CC(=O)C=CC5(C)C4C(O)CC3(C)[C@]2(C(=O)CO)O1 (some centres undefined)
0.954
CN(C)CCC=C1c2ccccc2CCc2ccccc21
0.983
O=c1c2ccccc2[se]n1-c1ccccc1
0.883

Need normalized growth, item O=C(NCc1cccs1)c1csc(Cc2c(Cl)cccc2Cl)n1
0.956

Let us now turn to COc1ccc(-c2cc(=O)c3ccccc3o2)cc1
0.873

Let us now turn to COc1cc(NC(=S)Nc2ccccc2OC(F)(F)F)cc(C(F)(F)F)c1
0.926

Let us now turn to CC(C)CSc1nnc(CSCc2nc(-c3ccc(Cl)cc3)cs2)n1C
1.05

Let us now turn to CC1(C)O[C@@H]2CC3C4CCC5=CC(=O)C=C[C@]5(C)[C@@]4(F)[C@@H](O)C[C@]3(C)[C@]2(C(=O)CO)O1 (some centres undefined)
0.947

Let us now turn to Fc1ccc(N/N=C\Cc2nnnn2-c2ccccc2)c(F)c1
0.356
